Test system: DU-145 prostate
Experimental protocol: NCI tumour cell line growth inhibition, 48 h
TGI reference

Answered cases to consult:
In [3]: df
Out[3]:
                                   molecule    result
0         O=c1cc(-c2ccccc2)[nH]c2cccc(S)c12  > 100 µM
1  COc1cc(/C=C2/SC(c3ccccc3)N(c3cccc([N+](=O)[O-])c3)C2=O)cc(OC)c1OC (centres undefined)  > 100 µM

Next item in the queue.
Problem: Quick check: TGI of COc1ccc2c(c1)C(=O)CC(N)C2 (centres undefined) ?
Solution: > 100 µM

###

Tested on: HCT-116 colon
Experimental protocol: NCI tumour cell line growth inhibition, 48 h
Metric name: TGI

Answered cases to consult:
                                   compound  tested_target    result
0          CCOc1ccccc1NC(=O)/C=C1\NC(=O)CS1  HCT-116 colon  > 100 µM
1  CC(=O)O[C@H]1C(N(C)C(=O)c2ccccc2)CC[C@]2(C)C3CC[C@@]4(C)C(CC(O)[C@@H]4C(C)N(C)C)[C@@H]3CCC12 (stereo partly drawn)  HCT-116 colon  > 100 µM

Next item in the queue.
Problem: Quick check: TGI of CCN(CC)CCCCC1CCN(CC(=O)N2CC(C)C(=O)Nc3ccccc32)CC1 (stereo not drawn) ?
Solution: > 100 µM

Hello, the source for this data is PubChem BioAssay (NCI), in case you need it.
